SYSTEM TESTED: T1, human GIP receptor (human, UniProt P48546 22-466)
T1 sequence (looked up): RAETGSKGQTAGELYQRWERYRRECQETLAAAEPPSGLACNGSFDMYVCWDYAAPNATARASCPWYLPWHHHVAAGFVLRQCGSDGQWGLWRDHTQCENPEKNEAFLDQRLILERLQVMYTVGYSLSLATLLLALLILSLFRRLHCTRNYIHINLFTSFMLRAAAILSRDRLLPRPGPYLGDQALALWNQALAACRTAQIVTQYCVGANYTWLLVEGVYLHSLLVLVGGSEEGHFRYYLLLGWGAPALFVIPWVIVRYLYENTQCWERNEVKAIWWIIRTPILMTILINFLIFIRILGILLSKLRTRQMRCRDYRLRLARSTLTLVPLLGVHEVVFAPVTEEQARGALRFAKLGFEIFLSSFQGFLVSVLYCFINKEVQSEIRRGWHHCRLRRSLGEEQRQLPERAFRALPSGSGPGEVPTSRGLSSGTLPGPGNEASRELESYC
ASSAY OVERVIEW: cell-based or functional assay
Positions of bridges follow the written chain, without caps; N, C: chain ends. Non-standard residues stand in square brackets, D forms with d. No end group written: not given here. *: point of attachment. Acetyl(2-(4-imidazolyl)) = O=C(Cc1c[nH]cn1)*; Aib = CC(C)(N)C(=O)O
PROPERTY LABEL: In vitro activity (%) compared with native peptide: vs GIP
Answers are plain numbers, in %.

Solved entries (count: 2):
[[record]]
binder = "H[Aib]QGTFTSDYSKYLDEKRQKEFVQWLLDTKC (bridge 16-20; not fully specified) [triple agonist of SEQ ID NO: 78]"
units = "%"
number = 0.12

[[record]]
binder = "Y[Aib]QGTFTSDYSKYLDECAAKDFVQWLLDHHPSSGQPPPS (bridge 16-20) [triple agonist of SEQ ID NO: 67]"
units = "%"
number = 39.8


Hey, can you go through the list below and give me In vitro activity (%) compared with native peptide: vs GIP for every item?
1. H[Aib]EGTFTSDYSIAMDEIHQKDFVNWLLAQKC (bridge 16-20; not fully specified) [triple agonist of SEQ ID NO: 79]
2. H[Aib]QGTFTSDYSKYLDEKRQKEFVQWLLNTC (bridge 16-20; not fully specified) [triple agonist of SEQ ID NO: 51]
3. {Acetyl(2-(4-imidazolyl))}-[Aib]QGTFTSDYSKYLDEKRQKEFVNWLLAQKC (bridge 15-19; not fully specified) [triple agonist of SEQ ID NO: 93]

Reply:
1. 1.4
2. 0.1
3. 0.7
